Cited source for all entries: ChEMBL document CHEMBL1777685

pEC50: −log10 of the molar value.
Each entry below carries its measured pEC50, system: Peroxisome proliferator-activated receptor gamma (Homo sapiens, UniProt P37231).
Sequence (P37231 whole entry): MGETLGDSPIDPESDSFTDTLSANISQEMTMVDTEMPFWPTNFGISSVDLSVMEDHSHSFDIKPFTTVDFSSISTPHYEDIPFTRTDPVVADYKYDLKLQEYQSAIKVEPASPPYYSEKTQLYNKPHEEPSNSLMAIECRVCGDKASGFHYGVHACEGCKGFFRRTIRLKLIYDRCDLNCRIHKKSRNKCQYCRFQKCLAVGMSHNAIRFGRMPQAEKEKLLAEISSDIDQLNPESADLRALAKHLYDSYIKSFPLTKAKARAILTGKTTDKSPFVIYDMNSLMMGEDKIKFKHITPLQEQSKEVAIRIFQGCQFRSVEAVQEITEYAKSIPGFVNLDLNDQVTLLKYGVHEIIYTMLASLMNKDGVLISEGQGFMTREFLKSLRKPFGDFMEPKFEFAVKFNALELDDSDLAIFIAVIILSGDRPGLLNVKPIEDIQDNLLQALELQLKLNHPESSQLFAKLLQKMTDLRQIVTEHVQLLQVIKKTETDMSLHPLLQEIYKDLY
observable: pEC50

Solved cases below.
Query block: So what does the record say about pEC50 for CC(C)c1nc(-c2ccc(C(F)(F)F)cc2)sc1CCc1noc2cc(OC(C)(C)C(=O)O)ccc12 ?
Result block: 5.29

Query block: Next: CCc1oc(-c2ccccc2)nc1CCc1noc2cc(OC(C)(C)C(=O)O)ccc12
Result block: 4.60

Query block: Again, but for Cc1oc(-c2ccccc2)nc1CCc1noc2cc(OC(C)(C)C(=O)O)ccc12
Result block: 4.68

Query block: Now the same for CCCc1oc(-c2ccccc2)nc1CCc1noc2cc(OC(C)(C)C(=O)O)ccc12
Result block: 4.72

P. Cc1cc2c(CCc3sc(-c4ccc(C(F)(F)F)cc4)nc3C(C)C)noc2cc1OC(C)(C)C(=O)O
Q. CC(C)c1oc(-c2ccc(Cl)cc2Cl)nc1CCc1noc2cc(OC(C)(C)C(=O)O)ccc12
R. CC(C)c1oc(-c2ccccc2O)nc1CCc1noc2cc(OC(C)(C)C(=O)O)ccc12
Query block: Falling order of pEC50, please. Present the labels in the sequence the task asks for.
Result block: P, R, Q
(P: 6.04, R: 4.84, Q: 4.58)

* * *

Biological target: Peroxisome proliferator-activated receptor delta (Homo sapiens, UniProt Q03181)
Sequence (Q03181 whole entry): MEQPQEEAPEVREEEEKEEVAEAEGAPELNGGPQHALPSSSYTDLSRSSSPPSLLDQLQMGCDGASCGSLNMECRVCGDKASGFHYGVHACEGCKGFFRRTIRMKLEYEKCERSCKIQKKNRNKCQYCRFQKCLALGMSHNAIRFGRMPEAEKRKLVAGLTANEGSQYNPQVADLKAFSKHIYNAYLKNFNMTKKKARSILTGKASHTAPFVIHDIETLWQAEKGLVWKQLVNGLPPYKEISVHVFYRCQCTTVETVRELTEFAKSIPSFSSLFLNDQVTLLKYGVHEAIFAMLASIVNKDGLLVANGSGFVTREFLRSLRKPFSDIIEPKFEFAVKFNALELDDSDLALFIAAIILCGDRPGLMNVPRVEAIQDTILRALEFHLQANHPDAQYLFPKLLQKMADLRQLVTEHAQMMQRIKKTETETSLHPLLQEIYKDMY
Experiment: Agonist activity at human PPARdelta-LBD expressed in CV1 cells co-transfected with Gal4 after 40 hrs by luciferase based transactivation assay
observable: EC50 (µM)

Query block: Please report the recorded EC50 for Cc1oc(-c2ccccc2)nc1CCc1noc2cc(OC(C)(C)C(=O)O)ccc12 .
Result block: 14.9

Query block: Now give it for CC(C)c1nc(-c2ccc(C(F)(F)F)cc2)sc1CCc1noc2cc(OC(C)(C)C(=O)O)ccc12 too.
Result block: 0.021

Query block: Then what about the molecule CC(C)c1oc(-c2ccc(Cl)cc2Cl)nc1CCc1noc2cc(OC(C)(C)C(=O)O)ccc12 ?
Result block: 0.1

Query block: Also need CCc1oc(-c2ccccc2)nc1CCc1noc2cc(OC(C)(C)C(=O)O)ccc12 , thanks.
Result block: 6.7

Query block: Next up: CCCc1oc(-c2ccccc2)nc1CCc1noc2cc(OC(C)(C)C(=O)O)ccc12
Result block: 9.8

1. CC(C)c1oc(-c2ccc(C(C)(C)C)cc2)nc1CCc1noc2cc(OC(C)(C)C(=O)O)ccc12
2. CCCCc1ccc(-c2nc(CCc3noc4cc(OC(C)(C)C(=O)O)ccc34)c(C(C)C)o2)cc1
Query block: # returns the entry with the larger EC50; inputs 1 and 2 State your choice using its label.
Result block: 1

* * *

Biological target: Peroxisome proliferator-activated receptor gamma (Homo sapiens, UniProt P37231)
observable: EC50 (µM)

Query block: Please look up its EC50: CCCc1oc(-c2ccccc2Cl)nc1CCc1noc2cc(OC(C)(C)C(=O)O)ccc12
Result block: 26.4

I. CCCCCCc1oc(-c2ccccc2Cl)nc1CCc1noc2cc(OC(C)(C)C(=O)O)ccc12
II. CC(C)c1oc(-c2ccccc2Cl)nc1CCc1noc2cc(OC(C)(C)C(=O)O)ccc12
III. CCCCc1ccc(-c2nc(CCc3noc4cc(OC(C)(C)C(=O)O)ccc34)c(C(C)C)o2)cc1
IV. CC(C)c1oc(-c2ccc(C(C)(C)C)cc2)nc1CCc1noc2cc(OC(C)(C)C(=O)O)ccc12
Query block: Sort the compounds on EC50; start with the lowest figure. Ranked list of labels, please, in the requested order.
Result block: IV, III, I, II

* * *

Target: Peroxisome proliferator-activated receptor delta (Homo sapiens, UniProt Q03181)
Assay: Agonist activity at human PPARdelta-LBD expressed in CV1 cells co-transfected with Gal4 after 40 hrs by luciferase based transactivation assay
observable: EC50 (µM)

1. CC(C)c1oc(-c2ccccc2Cl)nc1CCc1noc2cc(OC(C)(C)C(=O)O)ccc12
2. CC(C)c1oc(-c2ccccc2O)nc1CCc1noc2cc(OC(C)(C)C(=O)O)ccc12
3. CCCCCCc1oc(-c2ccccc2Cl)nc1CCc1noc2cc(OC(C)(C)C(=O)O)ccc12
4. Cc1cc2c(CCc3sc(-c4ccc(C(F)(F)F)cc4)nc3C(C)C)noc2cc1OC(C)(C)C(=O)O
5. CCCc1oc(-c2ccccc2Cl)nc1CCc1noc2cc(OC(C)(C)C(=O)O)ccc12
Query block: Lab note: rank above entries, EC50 ascending. Lab note: record answer as labels in requested order.
Result block: 4, 2, 1, 3, 5
(4: 0.011 µM, 2: 0.9 µM, 1: 1.3 µM, 3: 2 µM, 5: 5.4 µM)

* * *

Target: Peroxisome proliferator-activated receptor alpha (Homo sapiens, UniProt Q07869)
Assay: Agonist activity at human PPARalpha-LBD expressed in CV1 cells co-transfected with Gal4 after 40 hrs by luciferase based transactivation assay
pEC50: −log10 of the molar value.
observable: pEC50

Solved cases (2 shown):
Query block: Requested field: pEC50. Item: CCCc1oc(-c2ccccc2)nc1CCc1noc2cc(OC(C)(C)C(=O)O)ccc12
Result block: 4.88

Query block: One more compound: CCc1oc(-c2ccccc2)nc1CCc1noc2cc(OC(C)(C)C(=O)O)ccc12
Result block: 4.83

I. CC(C)c1oc(-c2ccccc2O)nc1CCc1noc2cc(OC(C)(C)C(=O)O)ccc12
II. CC(C)c1oc(-c2ccccc2Cl)nc1CCc1noc2cc(OC(C)(C)C(=O)O)ccc12
Query block: Hey, between I and II which has a smaller measured pEC50? Returns: label corresponding to the selected item.
Result block: II
(II: 4.47, I: 4.98)

* * *

Molecular target: Peroxisome proliferator-activated receptor alpha (Homo sapiens)
Sequence (Q07869 whole entry): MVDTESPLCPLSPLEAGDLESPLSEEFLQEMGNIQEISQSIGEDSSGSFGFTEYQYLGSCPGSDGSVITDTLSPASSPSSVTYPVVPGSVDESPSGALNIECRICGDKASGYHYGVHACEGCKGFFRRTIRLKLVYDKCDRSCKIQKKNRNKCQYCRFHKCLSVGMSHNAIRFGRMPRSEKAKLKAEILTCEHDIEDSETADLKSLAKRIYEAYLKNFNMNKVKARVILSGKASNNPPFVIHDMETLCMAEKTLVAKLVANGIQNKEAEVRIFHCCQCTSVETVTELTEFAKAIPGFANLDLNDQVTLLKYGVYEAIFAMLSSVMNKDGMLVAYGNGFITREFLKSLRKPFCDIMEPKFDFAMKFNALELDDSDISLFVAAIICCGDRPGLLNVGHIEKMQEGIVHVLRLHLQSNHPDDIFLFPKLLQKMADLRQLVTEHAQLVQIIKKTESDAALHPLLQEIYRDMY
Assay: Agonist activity at human PPARalpha-LBD expressed in CV1 cells co-transfected with Gal4 after 40 hrs by luciferase based transactivation assay
pEC50: −log10 of the molar value.
observable: pEC50

A. CC(C)c1oc(-c2ccc(Cl)cc2Cl)nc1CCc1noc2cc(OC(C)(C)C(=O)O)ccc12
B. CC(C)c1oc(-c2ccc(C(C)(C)C)cc2)nc1CCc1noc2cc(OC(C)(C)C(=O)O)ccc12
C. Cc1cc2c(CCc3sc(-c4ccc(C(F)(F)F)cc4)nc3C(C)C)noc2cc1OC(C)(C)C(=O)O
Query block: Ranking by pEC50 (descending) is requested for the entries above. Write out the labels following the order that was asked for.
Result block: C, B, A

1. CCCc1oc(-c2ccccc2Cl)nc1CCc1noc2cc(OC(C)(C)C(=O)O)ccc12
2. CC(C)c1nc(-c2ccc(C(F)(F)F)cc2)sc1CCc1noc2cc(OC(C)(C)C(=O)O)ccc12
3. CCCCCCc1oc(-c2ccccc2Cl)nc1CCc1noc2cc(OC(C)(C)C(=O)O)ccc12
Query block: Parameters: sort_field (pEC50), sort_dir (desc). Hello, could you send the labels back in the order asked? Thank you.
Result block: 2, 3, 1

A. Cc1oc(-c2ccccc2)nc1CCc1noc2cc(OC(C)(C)C(=O)O)ccc12
B. CCCCc1ccc(-c2nc(CCc3noc4cc(OC(C)(C)C(=O)O)ccc34)c(C(C)C)o2)cc1
Query block: Of the two listed items, which has the higher pEC50? First: A Second: B Output the label that corresponds to your choice.
Result block: B
(B: 5.48, A: 4.89)
